Source of measurements: ChEMBL document CHEMBL4477231

# System: GES1
# assay.notes: Cytotoxicity against human GES-1 cells assessed as reduction in cell viability after 72 hrs by MTT assay
# Format: cell-based
# reported.conditions: GES1, 72 h
readout.kind: IC50

// query Fill in the blank: the reported IC50 of COc1cc(/C=C/C(=O)c2ccc(OCCCSC(=S)N3CCN(C)CC3)cc2)cc(OC)c1OC is ____.
// result > 64 µM

// query Next record, please: COc1cc(/C=C/C(=O)c2ccc(OCCSC(=S)N3CCN(C)CC3)cc2)cc(OC)c1OC
// result > 64 µM

====

# Tested on: SK-N-SH
# assay.notes: Cytotoxicity against human SK-N-SH cells assessed as cell growth inhibition after 72 hrs by MTT assay
# Assay type: functional, cell-based
readout.kind: IC50 (µM)
// return numeric value only (unit: µM, not printed)

// query For the record O=C(/C=C/c1cccs1)c1ccc(OCCSC(=S)N2CCCC2)cc1 , what value of IC50 is listed for SK-N-SH?
// result 19.1

// query Next record, please: COc1cc(/C=C/C(=O)c2ccc(OCCSC(=S)N3CCCC3)cc2)cc(OC)c1OC
// result 12.1

// query Next record, please: COc1cc(/C=C/C(=O)c2ccc(OCCCSC(=S)N3CCCC3)cc2)cc(OC)c1OC
// result 12.8

// query Next record, please: O=C(/C=C/c1ccc(Cl)cc1)c1ccc(OCCSC(=S)N2CCOCC2)cc1
// result 11.7

// query Next record, please: CN1CCN(C(=S)SCCCOc2ccc(C(=O)/C=C/c3cc(Cl)cc(Cl)c3)cc2)CC1
// result 24.6

// query Next record, please: O=C(/C=C/c1ccc(Cl)cc1)c1ccc(OCCCSC(=S)N2CCCC2)cc1
// result 19.1

// query Next record, please: O=C(/C=C/c1cc(F)cc(F)c1)c1ccc(OCCCSC(=S)N2CCCC2)cc1
// result 36.1

// query Next record, please: O=C(/C=C/c1cccs1)c1ccc(OCCCSC(=S)N2CCCCC2)cc1
// result 38.2

// query Next record, please: CN1CCN(C(=S)SCCCOc2ccc(C(=O)/C=C/c3cc(F)cc(F)c3)cc2)CC1
// result 13.2

// query Next record, please: O=C(/C=C/c1cccnc1)c1ccc(OCCCSC(=S)N2CCCC2)cc1
// result 24.5

// query Next record, please: COc1cc(/C=C/C(=O)c2ccc(OCCSC(=S)N3CCN(C)CC3)cc2)cc(OC)c1OC
// result 2.46

// query Next record, please: CN1CCN(C(=S)SCCCOc2ccc(C(=O)/C=C/c3ccc(Cl)cc3)cc2)CC1
// result 31.9

// query Next record, please: COc1cc(/C=C/C(=O)c2ccc(OCCSC(=S)N3CCCCC3)cc2)cc(OC)c1OC
// result 48.4

// query Next record, please: COc1cc(/C=C/C(=O)c2ccc(OCCCSC(=S)N3CCN(C)CC3)cc2)cc(OC)c1OC
// result 2.03

// query Next record, please: COc1ccc(/C=C/C(=O)c2ccc(OCCCSC(=S)N3CCN(C)CC3)cc2)cc1
// result 29.5

// query Next record, please: O=C(/C=C/c1ccc(Cl)cc1)c1ccc(OCCSC(=S)N2CCCC2)cc1
// result 18.3

// query Next record, please: O=C(/C=C/c1ccc(Cl)cc1)c1ccc(OCCCSC(=S)N2CCCCC2)cc1
// result 32.2

// query Next record, please: O=c1[nH]cc(F)c(=O)[nH]1
// result 9.84

// query Next record, please: O=C(/C=C/c1ccc(Cl)cc1)c1ccc(OCCSC(=S)N2CCCCC2)cc1
// result 27.4
